The following compounds were reported with pKi values on HPK1 (Homo sapiens (Human), UniProt Q92918) in different studies.
pKi: −log10 of the molar value.
reported endpoint: pKi

{"compound": "CN1CCN(c2ccc(-c3n[nH]c4cnc(-c5c(Cl)cccc5C(F)(F)F)cc34)cc2)CC1", "system name": "HPK1 (Homo sapiens (Human), UniProt Q92918)", "reported endpoint": "pKi", "recorded measurement": "≥ 7.00"}
{"compound": "CN1CCN(c2ccc(-c3n[nH]c4ccc(-c5cccc(F)c5F)nc34)cc2)CC1", "system name": "HPK1 (Homo sapiens (Human), UniProt Q92918)", "reported endpoint": "pKi", "recorded measurement": "≥ 7.00"}
{"compound": "Cc1cc(CNC(C)C)cc(F)c1-c1cc2c(-c3cnn(C)c3)n[nH]c2cn1", "system name": "HPK1 (Homo sapiens (Human), UniProt Q92918)", "reported endpoint": "pKi", "recorded measurement": "≥ 7.00"}
{"compound": "Cn1cc(-c2n[nH]c3cnc(-c4c(F)ccc(CNC5CC5)c4F)cc23)cn1", "system name": "HPK1 (Homo sapiens (Human), UniProt Q92918)", "reported endpoint": "pKi", "recorded measurement": "≥ 7.00"}
{"compound": "O=C1COCCN1c1cccc(-c2cnc3c(c2)C2(CC2)CN3)c1", "system name": "HPK1 (Homo sapiens (Human), UniProt Q92918)", "reported endpoint": "pKi", "recorded measurement": 7.39}
{"compound": "Fc1cc2c(c(F)c1-c1ncc3[nH]nc(-c4ccc(N5CCOCC5)nc4)c3n1)CNCC2", "system name": "HPK1 (Homo sapiens (Human), UniProt Q92918)", "reported endpoint": "pKi", "recorded measurement": "≥ 7.00"}
{"compound": "[2H]C([2H])([2H])Oc1ccc(C)c(F)c1-c1nccc(C(=O)Nc2cc(F)c3c(cnn3CCOC)c2N2C[C@@H](N)C[C@H]2CO)n1", "system name": "HPK1 (Homo sapiens (Human), UniProt Q92918)", "reported endpoint": "pKi", "recorded measurement": "> 7.00"}
{"compound": "CCNCc1ccc(F)c(-c2cc3c(-c4cnn(C)c4)n[nH]c3cn2)c1OC", "system name": "HPK1 (Homo sapiens (Human), UniProt Q92918)", "reported endpoint": "pKi", "recorded measurement": "≥ 7.00"}
{"compound": "CNCc1cc(C)c(-c2cc3c(-c4ccc(OC)cc4)n[nH]c3cc2C#N)c(F)c1", "system name": "HPK1 (Homo sapiens (Human), UniProt Q92918)", "reported endpoint": "pKi", "recorded measurement": "≥ 7.00"}
{"compound": "CNCc1cc(F)c(-c2cc3c(-c4ccc(N5CCN(C(C)=O)CC5)cn4)n[nH]c3cn2)c(OC(F)F)c1", "system name": "HPK1 (Homo sapiens (Human), UniProt Q92918)", "reported endpoint": "pKi", "recorded measurement": "≥ 7.00"}
{"compound": "CCc1c(F)[nH]c2ncc(-c3cccc(N4CCOCC4=O)c3)cc12", "system name": "HPK1 (Homo sapiens (Human), UniProt Q92918)", "reported endpoint": "pKi", "recorded measurement": 8.40}
{"compound": "Nc1cc(-c2cnc3c(c2)C2(CC2)CN3)nc(N2CCCOC2=O)c1", "system name": "HPK1 (Homo sapiens (Human), UniProt Q92918)", "reported endpoint": "pKi", "recorded measurement": 7.32}
{"compound": "COc1cccc(F)c1-c1cc2c(NC(=O)c3ccc(N4CCNCC4)cc3)n[nH]c2cn1", "system name": "HPK1 (Homo sapiens (Human), UniProt Q92918)", "reported endpoint": "pKi", "recorded measurement": "≥ 7.00"}
{"compound": "CNCc1cc(C)c(-c2cc3c(-c4cnc(N5CCN(C)CC5)nc4)n[nH]c3cc2C#N)c(F)c1", "system name": "HPK1 (Homo sapiens (Human), UniProt Q92918)", "reported endpoint": "pKi", "recorded measurement": "≥ 7.00"}
{"compound": "COc1cccc(F)c1-c1nccc(C(=O)Nc2ccc3sc(C)nc3c2N2C[C@H]3C[C@@H]2CN3C(=O)N2CCOCC2)n1", "system name": "HPK1 (Homo sapiens (Human), UniProt Q92918)", "reported endpoint": "pKi", "recorded measurement": "> 7.00"}
{"compound": "CN1CCN(c2ccc(-c3n[nH]c4cc(=O)n(C5CCOC5)cc34)cc2)CC1 (stereo not shown)", "system name": "HPK1 (Homo sapiens (Human), UniProt Q92918)", "reported endpoint": "pKi", "recorded measurement": "5.52 to 6.30"}

----------
pKi: −log10 of the molar value.
The following compounds were reported with pKi values on HPK1 (Homo sapiens (Human), UniProt Q92918) in different studies.
reported endpoint: pKi

{"compound": "CCNCc1cccc(-c2cc3c(-c4cnn(C)c4)n[nH]c3cn2)c1C(F)(F)F", "system name": "HPK1 (Homo sapiens (Human), UniProt Q92918)", "recorded measurement": "≥ 7.00"}
{"compound": "c1cc(-c2cnc3c(c2)C2(CC2)CN3)cc(-c2nnn3c2CNCC3)c1", "system name": "HPK1 (Homo sapiens (Human), UniProt Q92918)", "recorded measurement": 6.56}
{"compound": "CNCc1cc(C)c(-c2cc3c(-c4ccc(C(F)(F)F)cc4)n[nH]c3cc2C#N)c(F)c1", "system name": "HPK1 (Homo sapiens (Human), UniProt Q92918)", "recorded measurement": "≥ 7.00"}
{"compound": "O=C(N1CCOCC1)C1(c2cccc(-c3cnc4c(c3Cl)C3(CC=CC3)CN4)c2)CC1", "system name": "HPK1 (Homo sapiens (Human), UniProt Q92918)", "recorded measurement": 6.31}
{"compound": "CCn1cc(-c2n[nH]c3cc(C#N)c(-c4c(C)cc(CNC)cc4F)cc23)cn1", "system name": "HPK1 (Homo sapiens (Human), UniProt Q92918)", "recorded measurement": "≥ 7.00"}
{"compound": "CCc1c(Cl)[nH]c2ncc(-c3cccc(N4CCOCC4=O)n3)cc12", "system name": "HPK1 (Homo sapiens (Human), UniProt Q92918)", "recorded measurement": 8.70}
{"compound": "CC(C)NCc1cc(F)c(-c2cc3c(NC(=O)c4cccc(N5CCN(C)CC5)c4F)n[nH]c3cn2)c(F)c1", "system name": "HPK1 (Homo sapiens (Human), UniProt Q92918)", "recorded measurement": "≥ 7.00"}
{"compound": "CCc1c(Cl)[nH]c2ncc(-c3ccc(C4NCCNC4=O)cc3)cc12 (centres unmarked)", "system name": "HPK1 (Homo sapiens (Human), UniProt Q92918)", "recorded measurement": 7.49}
{"compound": "CNC1CCc2c1cc(F)c(-c1cc3c(-c4cnn(C)c4)n[nH]c3cn1)c2F (centres unmarked)", "system name": "HPK1 (Homo sapiens (Human), UniProt Q92918)", "recorded measurement": "≥ 7.00"}
{"compound": "CNCc1ccc(-c2cc3c(-c4cnn(C)c4)n[nH]c3cn2)c(C(F)(F)F)c1", "system name": "HPK1 (Homo sapiens (Human), UniProt Q92918)", "recorded measurement": "≥ 7.00"}
{"compound": "Cn1cc(-c2n[nH]c3cnc(-c4c(F)cc(NC(=O)Cc5cccnc5)cc4F)cc23)cn1", "system name": "HPK1 (Homo sapiens (Human), UniProt Q92918)", "recorded measurement": "≥ 7.00"}
{"compound": "CN1CCN(c2ccc(-c3n[nH]c4cnc(-c5ccccc5F)nc34)cc2)CC1", "system name": "HPK1 (Homo sapiens (Human), UniProt Q92918)", "recorded measurement": "≥ 7.00"}
{"compound": "Cn1cc(-c2n[nH]c3cnc(-c4c(F)ccc5c4CCCC5N)cc23)cn1 (centres unmarked)", "system name": "HPK1 (Homo sapiens (Human), UniProt Q92918)", "recorded measurement": "≥ 7.00"}
{"compound": "COc1cccc(F)c1-c1ncc2[nH]nc(-c3ccncc3)c2n1", "system name": "HPK1 (Homo sapiens (Human), UniProt Q92918)", "recorded measurement": "≥ 7.00"}
{"compound": "COc1cccc(F)c1-c1ncc2[nH]nc(-c3ccc(C(=O)N(C)C)cc3)c2n1", "system name": "HPK1 (Homo sapiens (Human), UniProt Q92918)", "recorded measurement": "6.30 to 7.00"}
{"compound": "CNCc1cc(F)c(-c2ncc3[nH]nc(-c4cnn(C)c4)c3c2OC)c(F)c1", "system name": "HPK1 (Homo sapiens (Human), UniProt Q92918)", "recorded measurement": "≥ 7.00"}
{"compound": "Cc1cc(NC(=O)CCN(C)C)cc(F)c1-c1cc2c(-c3cnn(C)c3)n[nH]c2cn1", "system name": "HPK1 (Homo sapiens (Human), UniProt Q92918)", "recorded measurement": "≥ 7.00"}
